# measurement-target: Serine/threonine-protein kinase Chk2 (Homo sapiens)
# Sequence (O96017 whole entry): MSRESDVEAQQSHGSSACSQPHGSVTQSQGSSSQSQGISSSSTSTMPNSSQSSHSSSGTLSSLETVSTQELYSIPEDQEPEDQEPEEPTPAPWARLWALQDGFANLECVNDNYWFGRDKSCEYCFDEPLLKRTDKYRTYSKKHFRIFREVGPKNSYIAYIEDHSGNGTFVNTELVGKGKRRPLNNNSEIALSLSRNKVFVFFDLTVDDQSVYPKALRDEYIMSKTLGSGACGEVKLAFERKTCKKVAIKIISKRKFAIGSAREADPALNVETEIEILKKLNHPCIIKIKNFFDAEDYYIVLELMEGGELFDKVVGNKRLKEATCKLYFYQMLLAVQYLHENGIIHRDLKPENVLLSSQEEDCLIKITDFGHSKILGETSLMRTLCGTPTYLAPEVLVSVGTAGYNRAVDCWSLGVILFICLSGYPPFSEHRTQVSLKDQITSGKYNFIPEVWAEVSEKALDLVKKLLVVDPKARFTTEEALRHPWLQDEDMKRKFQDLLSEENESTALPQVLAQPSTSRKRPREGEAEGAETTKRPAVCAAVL
parameter-measured: pIC50
The value called pIC50 is obtained by taking minus log10 of the concentration in mol/L.

Problem: API: value(readout=pIC50, system=Serine/threonine-protein kinase Chk2 (Homo sapiens)) for record NCC1CN(c2c(Br)cnc3[nH]ncc23)CCO1 (stereo unspecified)
Solution: 5.13
